# literature pull: Cathepsin S (Homo sapiens) Ki
Hi! Could you send only the number? It should be in nM, unit omitted.

Example entries begin here.
Tell me the measured Ki of C[C@@H]1CC[C@H](NC(=O)C2(NC(=O)c3cc4sccc4s3)CCCCC2)C(=O)CN1S(=O)(=O)c1ccccn1 , please.
175

Also CC[C@H](NC(=O)O[C@@H](CC1CCCCC1)C(=O)N1CCOCC1)C(=O)c1nc2cccnc2o1 , if possible.
0.4

Entry to check: CC1(C[C@H](NC(=O)c2ccc(F)cc2)C(=O)NC2(C(=O)C(N)=O)CCC2)CCCC1
0.1

Also NC(=O)C(=O)[C@]1(NC(=O)[C@H](CC2(F)CCCC2)NC(=O)c2cccc(-n3ccnc3)c2)C[C@H](F)C1 ?
0.084

Okay, next one:
So what does the record say about Ki for CCC[C@H](NC(=O)O[C@@H](CC1CCCCC1)C(=O)N1CCOCC1)C(=O)c1nc2cc(F)ccc2o1 ?
1.8
